Reference source for all entries: paper PMC5784245

system: Bacillus subtilis; format: cell-based; details: 24 h
Non-standard residues stand in square brackets, D forms with d. Residues, ends and D or L forms follow the SMILES beside them. *: point of attachment. Decanoyl = CCCCCCCCCC(=O)*; dOrn = NCCC[C@@H](N)C(=O)O; Orn = NCCC[C@H](N)C(=O)O
Measured property: MIC Bacillus subtilis (µg/mL)

| Molecule | Measured property | Value |
| --- | --- | --- |
| CCCCCCCCCC(=O)N[C@H](Cc1ccccc1)C(=O)N[C@H](CCCN)C(=O)N[C@@H](C(=O)N[C@H](CO)C(=O)N[C@H](Cc1ccccc1)C(=O)N[C@@H](CO)C(=O)N[C@@H](CO)C(=O)N[C@H](CCCN)C(=O)N[C@@H](Cc1ccccc1)C(=O)N[C@@H](CO)C(=O)N[C@H](C(=O)N[C@@H](C(=O)N[C@@H](CCCN)C(=O)O)[C@H](C)CC)C(C)C)[C@H](C)CC [1F, paenimucillin A] (Decanoyl-[dF][dOrn][dI][dS][dF]SS[dOrn]FSV[dI][Orn]-OH) | MIC Bacillus subtilis | 4 |
| CCCCCCCCCC(=O)N[C@H](Cc1ccccc1)C(=O)N[C@H](CCCN)C(=O)N[C@@H](C(=O)N[C@H](CO)C(=O)N[C@H](Cc1c[nH]c2ccccc12)C(=O)N[C@@H](CO)C(=O)N[C@@H](CO)C(=O)N[C@H](CCCN)C(=O)N[C@@H](Cc1c[nH]c2ccccc12)C(=O)N[C@@H](CO)C(=O)N[C@H](C(=O)N[C@@H](C(=O)N[C@@H](CCCN)C(=O)O)[C@H](C)CC)C(C)C)[C@H](C)CC [1W, paenimucillin B] (Decanoyl-[dF][dOrn][dI][dS][dW]SS[dOrn]WSV[dI][Orn]-OH) | MIC Bacillus subtilis | 16 |
| CC[C@@H](C)[C@@H](NC(=O)[C@@H](NC(=O)[C@H](CO)NC(=O)[C@H](Cc1ccccc1)NC(=O)[C@@H](CCCN)NC(=O)[C@H](CO)NC(=O)[C@H](CO)NC(=O)[C@@H](Cc1ccccc1)NC(=O)[C@@H](CO)NC(=O)[C@H](NC(=O)[C@@H](CCCN)NC(=O)[C@@H](Cc1ccccc1)NC(C)=O)[C@H](C)CC)C(C)C)C(=O)N[C@@H](CCCN)C(=O)O [4F, paenimucillin C] (Ac-[dF][dOrn][dI][dS][dF]SS[dOrn]FSV[dI][Orn]-OH) | MIC Bacillus subtilis | 16 |
